biological target: TLX ligand binding domain (Homo sapiens, UniProt Q9Y466); construct: purchased NovAliX SAS, Strasbourg, France; test: TLX ligand sensing assay (AlphaScreen, RIP140 NR box peptide recruitment); type: biochemical; details: oleic acid = 100
Sequence (Q9Y466 155-383 limits assumed): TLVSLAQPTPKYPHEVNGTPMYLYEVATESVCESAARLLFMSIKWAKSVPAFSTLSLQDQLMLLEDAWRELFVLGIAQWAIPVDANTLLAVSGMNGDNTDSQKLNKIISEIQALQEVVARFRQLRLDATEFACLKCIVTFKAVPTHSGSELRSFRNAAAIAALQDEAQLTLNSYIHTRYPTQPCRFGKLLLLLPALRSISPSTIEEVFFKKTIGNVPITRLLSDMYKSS
// reported TLX max. efficacy per item
Report only the number, with the unit % understood.

The cases that follow already have their TLX max. efficacy on record.
[
  {
    "compound": "CCCCC[C@H](C)/C=C(/C)C/C(C)=C/[C@@H](C)CCCCCC(=O)O",
    "measuredEndpoint": "TLX max. efficacy",
    "numericReadout": 71
  },
  {
    "compound": "CCCCCC/C=C(/C)C/C(C)=C/[C@@H](C)CCCCCC(=O)O",
    "measuredEndpoint": "TLX max. efficacy",
    "numericReadout": 79
  }
]

INPUT: What value of measured TLX max. efficacy is listed for CCCCC[C@@H](C)/C=C(/C)C/C(C)=C/[C@H](C)CCCCCC(=O)O ?
OUTPUT: 66

INPUT: I have this compound here, CCCCCCCC/C=C\CCCCCCCC(=O)O [oleic acid, reference compound] , and I need its recorded TLX max. efficacy.
OUTPUT: 100

====

biological target: GPR120 (Homo sapiens); test: PathHunter β-arrestin assay (Eurofins Discovery), GPR120; assay type: cell-based; settings: GPR120 EC50 measured
Sequence (Q5NUL3 whole entry): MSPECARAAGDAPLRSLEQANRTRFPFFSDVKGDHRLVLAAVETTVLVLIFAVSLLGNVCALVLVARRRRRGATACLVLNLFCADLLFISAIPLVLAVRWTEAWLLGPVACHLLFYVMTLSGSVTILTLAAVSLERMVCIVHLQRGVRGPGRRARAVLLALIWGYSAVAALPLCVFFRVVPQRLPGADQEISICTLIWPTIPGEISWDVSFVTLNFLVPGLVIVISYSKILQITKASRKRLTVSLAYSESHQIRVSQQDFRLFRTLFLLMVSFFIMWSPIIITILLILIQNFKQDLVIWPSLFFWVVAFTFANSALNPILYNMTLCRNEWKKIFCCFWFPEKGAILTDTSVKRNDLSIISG
measuredEndpoint: EC50 (µM)
Only the number, expressed in µM, is required.

INPUT: What measured EC50 is associated with CCCCCCCC/C=C\CCCCCCCC(=O)O [oleic acid, reference compound] on GPR120 (Homo sapiens)?
OUTPUT: 15

====

assay: Metabolic stability / intrinsic clearance in cryopreserved human hepatocytes; conditions: human, hepatocytes, Half-life (mean), human hepatocytes; 1.0E-06 M
measuredEndpoint: half-life at 1 µM
Please format your answer as a value with the unit trailing.

INPUT: half-life at 1 µM for CCN(CC)CCN1C(=O)CN=C(c2ccccc2F)c2cc(Cl)ccc21 [Flurazepam, reference compound] ?
OUTPUT: 51 min
